Tested on: PC-3
Experiment Notes: NCI tumour cell line growth inhibition, 48 h
Activity calls are given as the source filed them. Rule as the data show it: active = GI50 up to about 1.1 µM and inactive = higher.
For each entry below, report its GI50 value.

Problem: I have this molecule here, COc1ccc(OC)c2sc(N3C(=O)/C(=C/c4ccc(SC)cc4)N=C3c3ccccc3)nc12 , and I need its recorded GI50.
Solution: 21.7 µM (inactive)

Problem: I have this molecule here, Nc1ccc(C(=O)N2CCC[C@H]2CO)c(N)c1 , and I need its recorded GI50.
Solution: > 100 µM (inactive)

Problem: I have this molecule here, CC[C@@]12CCCN3CC[C@]4(c5cccc(OC)c5N(C(C)=O)[C@@H]4CC1)[C@H]32 , and I need its recorded GI50.
Solution: 43 µM (inactive)

Problem: I have this molecule here, COc1cc(COC(=O)N(C)[C@@H](Cc2ccccc2)C(=O)O)c([N+](=O)[O-])cc1OC , and I need its recorded GI50.
Solution: > 100 µM (inactive)

Problem: I have this molecule here, CC1(C)C2CCC1C(=O)C(C=O)C2 (centres undefined) , and I need its recorded GI50.
Solution: > 100 µM (inactive)

Problem: I have this molecule here, CC1OC(O)C(O)C(O)C1O (centres undefined) , and I need its recorded GI50.
Solution: > 100 µM (inactive)

Problem: I have this molecule here, COc1cc2c(c3oc4c(O)cccc4c(=O)c13)CC(C(C)(O)CCl)O2 (centres undefined) , and I need its recorded GI50.
Solution: 1.22 µM (inactive)

Problem: I have this molecule here, C=C1[C@H](OC(C)=O)[C@H]2[C@@H](OC(C)=O)[C@@H](C)C[C@]2(C)C(=O)[C@H](C)/C=C/C(C)(C)C(=O)[C@H](OCC(C)C)[C@H]1OC(C)=O , and I need its recorded GI50.
Solution: > 25 µM (inactive)

Problem: I have this molecule here, CCCCNCC(=O)O[C@]1(CC)C(=O)OCc2c1cc1n(c2=O)Cc2cc3ccccc3nc2-1 , and I need its recorded GI50.
Solution: 1.85 µM (inactive)

Problem: I have this molecule here, CCN1CCC(O)(C(C(=O)O)c2ccccc2)CC1 (centres undefined) , and I need its recorded GI50.
Solution: > 100 µM (inactive)

Problem: I have this molecule here, CC(C)=CCC/C(C)=C/CCC1(C)C2COC(=O)C21 (centres undefined) , and I need its recorded GI50.
Solution: 44.4 µM (inactive)

Problem: I have this molecule here, S=c1[nH]c2c(Cl)c(Cl)c(Cl)c(Cl)c2[nH]1 , and I need its recorded GI50.
Solution: 22.2 µM (inactive)

Problem: I have this molecule here, Nc1ncnc2c1ncn2C1CC(O)C(CO)O1 (centres undefined) , and I need its recorded GI50.
Solution: > 100 µM (inactive)

Problem: I have this molecule here, COc1nc(C#CCC(C)O)nc(OC)n1 (centres undefined) , and I need its recorded GI50.
Solution: 22.6 µM (inactive)

----------
Test system: HOP-92
Experiment Notes: NCI tumour cell line growth inhibition, 48 h
Active and inactive are the calls of the source. No stated cut-off is given here; in the data, active = GI50 up to about 1.1 µM and inactive = higher.
For each entry below, report its GI50 value.

Problem: Recorded GI50 for CC(/C=C/C=C\C=C\C=C(/C)C(=O)NC(C)CO)=C\C(C)C(O)/C(C)=C/C(C)CCc1ccccc1 (configuration not stated) with HOP-92, please?
Solution: 5.41 µM (inactive)

Problem: Recorded GI50 for CCC(CCCN)Nc1cc(OC)cc2c(C)ccnc12 (configuration not stated) with HOP-92, please?
Solution: 14 µM (inactive)

Problem: Recorded GI50 for COc1ccc(/C(Cl)=C(\C=O)c2ccc(F)cc2)cc1OC with HOP-92, please?
Solution: 6.32 µM (inactive)

Problem: Recorded GI50 for COC(=O)C1Cc2c([nH]c3ccccc23)C(C2CCCCC2)N1 (configuration not stated) with HOP-92, please?
Solution: > 100 µM (inactive)

Problem: Recorded GI50 for CC(C)N(C(=O)C12C3C4C5C3C1(C(=O)N(C(C)C)C(C)C)C5C42)C(C)C (configuration not stated) with HOP-92, please?
Solution: > 100 µM (inactive)

Problem: Recorded GI50 for Cc1ccc(NC(=O)CCC/C(CC(=O)c2ccc(Br)cc2)=N/NC(=O)CC#N)cc1 with HOP-92, please?
Solution: > 100 µM (inactive)

Problem: Recorded GI50 for Cc1ccc(Nc2nc3c(s2)C(=O)c2ccccc2C3=O)c(C)c1 with HOP-92, please?
Solution: 9.48 µM (inactive)

----------
Test system: MOLT-4
Experiment Notes: NCI tumour cell line growth inhibition, 48 h
Structures can show the parent of a compound that is named as a salt. Calls of active or inactive are those of the source. Rule as the data show it: active = GI50 up to about 1.1 µM and inactive = higher.
Measurement Label: GI50

Problem: I have this compound here, Nc1ccc(C(=O)CC2(O)C(=O)Nc3ccccc32)cc1 (configuration not stated) , and I need its recorded GI50.
Solution: > 100 µM (inactive)

Problem: I have this compound here, CC(NC(C)(C)C)C(=O)c1cccc(Cl)c1 (configuration not stated) [BUPROPION HYDROCHLORIDE] , and I need its recorded GI50.
Solution: > 100 µM (inactive)

Problem: I have this compound here, COC(=O)C1Cc2c([nH]c3ccccc23)C(C2CCCCC2)N1 (configuration not stated) , and I need its recorded GI50.
Solution: > 100 µM (inactive)

Problem: I have this compound here, CCCCCCC(N)(CCCCCC)C(=O)Nn1c(C)ccc1C , and I need its recorded GI50.
Solution: > 100 µM (inactive)

Problem: I have this compound here, COc1ccc(-n2c(Cn3nnc(-c4cccnc4)n3)nn(C3OC(COC(=O)c4ccccc4)C(OC(=O)c4ccccc4)C3OC(=O)c3ccccc3)c2=S)cc1 (configuration not stated) , and I need its recorded GI50.
Solution: > 100 µM (inactive)

Problem: I have this compound here, COc1ccc(C2SCC(=O)N2c2ccc(-c3ccc(-n4c(-c5ccccc5)nc5ccccc5c4=O)cc3)cc2)cc1 (configuration not stated) , and I need its recorded GI50.
Solution: 31.8 µM (inactive)

Problem: I have this compound here, COc1ccc2c3c1OC1C(=O)C=CC4(CC2)N(C)CCC314 (configuration not stated) , and I need its recorded GI50.
Solution: 12.8 µM (inactive)

----------
For each entry below, report its GI50 value.
System: NCI-H460
Experiment Notes: NCI tumour cell line growth inhibition, 48 h
Active and inactive are the calls of the source. Cut-off read from the data, not from the text of the source: active = GI50 up to about 1.1 µM and inactive = higher.

Problem: I have this compound here, CCCCc1ccc(NC(=N)N)cc1 , and I need its recorded GI50.
Solution: 20.2 µM (inactive)

Problem: I have this compound here, CS(=O)(=O)N(CC(=O)O)Cc1ccccc1 , and I need its recorded GI50.
Solution: > 100 µM (inactive)

Problem: I have this compound here, CC1(C)N=C(N)N=C(N)N1c1cccc(OCCOc2ccc([N+](=O)[O-])cc2)c1 , and I need its recorded GI50.
Solution: 7.53 µM (inactive)

Problem: I have this compound here, COC(=O)[C@@H](COC(=O)/C=C/c1ccc(OC(C)=O)c(OC(C)=O)c1)NC(=O)/C=C/c1ccc(OC(C)=O)c(OC(C)=O)c1 , and I need its recorded GI50.
Solution: 18.5 µM (inactive)

Problem: I have this compound here, O=C(O)CCC(C(=O)O)N1C(=O)c2ccccc2C1=O (stereo not given) , and I need its recorded GI50.
Solution: > 100 µM (inactive)

----------
For each entry below, report its GI50 value.
Tested on: M14
Experiment Notes: NCI tumour cell line growth inhibition, 48 h
Active and inactive are the calls of the source. Rule as the data show it: active = GI50 up to about 1.1 µM and inactive = higher.

Problem: I have this molecule here, OCCCCCCCCCCCOc1ccc(C2OCC3(CO2)COC(c2ccc(OCCCCCCCCCCCO)cc2)OC3)cc1 (stereo unspecified) , and I need its recorded GI50.
Solution: > 50 µM (inactive)

Problem: I have this molecule here, N#C/C(=C\c1cccc(Cl)c1Cl)c1ccccc1 , and I need its recorded GI50.
Solution: 74.5 µM (inactive)

Problem: I have this molecule here, CC(=O)O/N=C1\C=Cc2c(no[n+]2[O-])C1=O , and I need its recorded GI50.
Solution: 18.6 µM (inactive)

Problem: I have this molecule here, N#C/C(=C1\N=NC(N)=C(c2ccc(Cl)cc2)C1=O)c1ccc(Cl)cc1 , and I need its recorded GI50.
Solution: > 100 µM (inactive)

Problem: I have this molecule here, CC1CC(=O)Nc2ccc(/N=N/N(C)C)cc2N1C=O (stereo unspecified) , and I need its recorded GI50.
Solution: > 100 µM (inactive)

Problem: I have this molecule here, CN1CN(c2ccccc2)C2(CCN(CCCN(C)c3ccc(F)cc3)CC2)C1=O , and I need its recorded GI50.
Solution: 16.2 µM (inactive)

----------
System: MDA-MB-231
Experiment Notes: NCI tumour cell line growth inhibition, 48 h
The source made the active and inactive calls. Rule as the data show it: active = GI50 up to about 1.1 µM and inactive = higher.
Measurement Label: GI50

Problem: I have this compound here, C=C1[C@H](OC(C)=O)[C@H]2[C@@H](OC(C)=O)[C@@H](C)C[C@]2(C)C(=O)[C@H](C)/C=C/C(C)(C)C(=O)[C@H](OCC(C)C)[C@H]1OC(C)=O , and I need its recorded GI50.
Solution: > 25 µM (inactive)

Problem: I have this compound here, CCC/N=C/c1cc(Cc2ccc(O)c(/C=N/CCC)c2)ccc1O , and I need its recorded GI50.
Solution: 9.89 µM (inactive)

Problem: I have this compound here, CCC1(c2ccc(N3C(=O)c4ccccc4C3=O)cc2)CCC(=O)NC1=O (stereo not drawn) , and I need its recorded GI50.
Solution: > 10 µM (inactive)
